The reported numbers originate from PubChem BioAssay.

Consider the following compounds; for each one, report its inhibition.
Experiment: polyglutamine-triggered caspase-3 activation inhibitors, cell-based (AID 1583)
Conditions: polyglutamine-induced caspase-3 activation, cell assay; stronger effect = higher value; concentration not given here
Write the numeric value and follow it with the unit.

IN: I'd like to know its inhibition. The compound in question is Cn1nnnc1SCC1=C(C(=O)O)N2C(=O)C(NC(=O)C(O)c3ccccc3)C2SC1 (stereo unspecified)
OUT: 15.1%

IN: Consider next the compound C[C@]12C=CC(=O)C=C1CCC1C2[C@@H](O)C[C@@]2(C)C1CC[C@]2(O)C(=O)CO (stereo partly specified) in the same way.
OUT: 12%

IN: Also, C[N+]1(C)C2CC(OC(=O)[C@@H](CO)c3ccccc3)CC1C1OC12 (stereo partly specified) please.
OUT: 17.7%

IN: Try the compound CN1CCN(C(c2ccccc2)c2ccc(Cl)cc2)CC1 (stereo unspecified)
OUT: 9.79%

IN: Also Nc1ncnc2c1ncn2C1O[C@H](COP(=O)(O)O)[C@@H](O)[C@H]1O (stereo partly specified) ?
OUT: 5.37%

IN: Next compound: Nc1ccn(C2O[C@H](CO)[C@@H](O)[C@H]2O)c(=O)n1 (stereo partly specified)
OUT: 22%

###

Experiment: modulation of C. elegans fzo-1 (AID 1259413);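 also: fzo-1 mutant C. elegans worms in liquid wells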
Settings: C. elegans fzo-1 modulator screen, mean read-out; stronger effect = higher value
Please respond with reported mean signal for every item in the list.
I only need the number, thanks.

IN: Recorded mean signal of Cc1onc(-c2ccccc2)c1C(=O)NC1C(=O)N2C1SC(C)(C)C2C(=O)O (configuration not stated) , please.
OUT: 250

IN: How about this molecule: Nc1ccc2cn[nH]c2c1
OUT: 290

IN: Can you check CN[C@@H]1[C@H](O)[C@H](NC)[C@H]2OC3(O)C(=O)C[C@@H](C)O[C@H]3O[C@@H]2[C@H]1O (some centres not stated) next?
OUT: 224

IN: Query O=c1cnn([C@@H]2O[C@H](CO)[C@@H](O)[C@H]2O)c(=O)[nH]1 next
OUT: 301

IN: Input CC[C@H]1OC(=O)[C@H](C)[C@@H](O[C@H]2C[C@@](C)(OC)[C@@H](O)[C@H](C)O2)[C@H](C)[C@@H](O[C@@H]2O[C@H](C)C[C@H](N(C)C)[C@H]2O)[C@](C)(O)C[C@@H](C)CN(C)[C@H](C)[C@@H](O)[C@]1(C)O
OUT: 266

IN: Next molecule up: Cc1nnc(SCC2=C(C(=O)O)N3C(=O)C(NC(=O)Cn4cnnn4)C3SC2)s1 (configuration not stated)
OUT: 235

IN: Entry CC(C)OC(=O)CCC/C=C\C[C@@H]1[C@@H](CC[C@@H](O)CCc2ccccc2)[C@H](O)C[C@@H]1O please
OUT: 205

###

Experiment: differential killing of epithelial or mesenchymal cells, primary screen, imaging, PC-3E GFP, TEM4-18 mCherry, co-culture (AID 1345086);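 also: cells exposed to compound for 72 h before imaging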
Settings: imaging cell counts, measured here: mesenchymal TEM4-18 mCherry cell survival, at 1 µM
assay_readout: normalised cell number
The answer should be written as a number, with no unit following it.

IN: Given the entry CC1(C)S[C@@H]2[C@H](NC(=O)COc3ccccc3)C(=O)N2[C@H]1C(=O)O , report its measured normalised cell number.
OUT: 0.98

IN: Please do the same for CCCCC(=O)O[C@H]1CCC2C3CCc4cc(O)ccc4C3CC[C@@]21C (stereo partly drawn) as well.
OUT: 0.84

IN: Further, for Oc1ccc2c(c1)OCC1(O)Cc3cc(O)c(O)cc3C21 (stereo not drawn) ?
OUT: 1.31

IN: Then what about the compound CCCCC(CC)CCC(CC(C)C)OS(=O)(=O)O (stereo not drawn) ?
OUT: 1.07

IN: What about this compound? COc1cc(OC)c2c(O)c(C(C)=O)c(C)cc2c1
OUT: 1.09

IN: Now consider OCC(O)C(O)C(O)C(O)C(O)CO (stereo not drawn) and answer again.
OUT: 0.91

IN: Next record, please: O=C(/C=C/c1ccc(O)c(O)c1)OC(Cc1ccc(O)c(O)c1)C(=O)O (stereo not drawn)
OUT: 1.12

IN: Moving on to the next compound: COC(=O)c1c(Cl)nc(Cl)c2ccccc12
OUT: 0.91

###

Assay: differential killing of epithelial or mesenchymal cells, primary screen, imaging, PC-3E GFP, TEM4-18 mCherry, co-culture (AID 1345086);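 also: cells exposed to compound for 72 h before imaging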
Details: imaging cell counts, measured here: epithelial PC-3E GFP cell survival, at 1 µM
assay_readout: normalised cell number
Please reply with the value in numeric form only.

IN: Returns the measured normalised cell number for the input compound. Input: O=C(O)C1CCN(C(=O)OCc2ccccc2)CC1
OUT: 0.9

IN: Do the same for CC(=O)Oc1c(C)c(C)c2c(c1C)CCC(C)(CCCC(C)CCCC(C)CCCC(C)C)O2 (centres undefined) please
OUT: 0.92

IN: Query O=c1cc(-c2ccccc2)oc2ccc(O)cc12 next
OUT: 0.91

IN: Queued: C/C=C/c1cc2c(c(=O)o1)C(=O)[C@@H](O)[C@H](C)O2
OUT: 0.9

###

Experiment: inhibition of 3D7 malaria parasite growth – strain 3D7 (AID 2306);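 also: 0% = DMSO wells and 100% = chloroquine plus artemisinin control wells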
Settings: P. falciparum 3D7 erythrocytic growth, LDH absorbance, 72 h; at 2 µM; stronger effect = higher value
assay_readout: growth inhibition (%)
Express it in %; write the number only.

IN: State the recorded growth inhibition for this entry: c1ccc(C23N=C(Nc4nc5ccccc5[nH]4)NC2(c2ccccc2)NC(Nc2nc4ccccc4[nH]2)=N3)cc1 (stereo unspecified)
OUT: 97

IN: Note, next up: CC(=O)c1ccc(NC(=O)Nc2ccc(N(C)c3ccnc(Nc4cccc(CS(C)(=O)=O)c4)n3)cc2)cc1
OUT: 100

IN: Another compound to look at: Cc1nc2ccc(S(=O)(=O)Nc3ccc(C(=O)N[C@@H](CCC(=O)O)C(=O)O)cc3)cc2c(=O)[nH]1
OUT: 94

IN: Next entry: COc1cc(CCNC(=O)Cc2ccc3ccccc3c2)ccc1OCc1ccccc1
OUT: 93

IN: Moving on to the next compound: COc1ccc(C(=O)Nc2ccc3oc(-c4ccc(C(F)(F)F)cc4)cc3c2)cc1CCCN(C)C
OUT: 98

IN: Proceed to COc1ccc2nc(-c3cc(-c4ccc(NC(C)=O)cc4)cnc3N)[nH]c2c1
OUT: 93

IN: Do the same for CN(C)CCCn1cncc1-c1ccc2ncnc(Nc3ccc(OCc4ccccc4)cc3)c2c1 please
OUT: 101

IN: Same read-out for CC(=O)Nc1ccc(C(=O)Nc2cccc(-c3ccc(-c4nc5ccc(F)cc5[nH]4)s3)c2)cn1 ?
OUT: 101

IN: Next compound: CCN(CC)C(C)(C)CN(Cc1ccc(-c2ccc(C(F)(F)F)cc2)cc1)C(=O)Cn1c(CCc2cccc(F)c2F)nc(=O)c2ccccc21
OUT: 91

IN: Request: CS(=O)(=O)CCNCc1nc(-c2ccc3c(Nc4ccc(F)c(O)c4)ccnc3c2)cs1
OUT: 95

IN: What would you report for CC(C)c1cccc(OCC2CCN(c3ccc(C(=O)Nc4ccccc4)cn3)CC2)c1 ?
OUT: 95

IN: Next record, please: CCn1c(-c2nonc2N)nc2c(-c3cccc(NC(=O)NC45CC6CC(CC(C6)C4)C5)c3)ncc(OCCCN)c21
OUT: 94

IN: Try this compound next: CC(C)(CNC(=O)[C@@H]1CCCN(CCOc2ccc(F)c(F)c2)C1)c1nc(-c2ccc(Cl)c(O)c2)c(-c2ccncc2)[nH]1
OUT: 101

IN: Do the same for Cc1nc2nc(N)nc(N)c2c(C)c1Cc1ccc(N)cc1 please
OUT: 97

IN: Could you do the same for COc1cc(CCNCC(O)c2ccc([N+](=O)[O-])c(OCc3ccccc3)c2)cc(OC)c1OC (stereo unspecified) , please?
OUT: 98

IN: Please answer likewise for Cc1cccc(Cn2ccc3c4c(N)nc(N)nc4ccc32)c1
OUT: 95

IN: Try CC(=NNC(=S)NCc1ccco1)c1ccccn1 next.
OUT: 99

IN: Here is the next compound: CC(C)(CN)c1nc(-c2ccc(Cl)c(O)c2)c(-c2ccnc(N)n2)[nH]1
OUT: 95

IN: Okay, and COc1cc2ncnc(Nc3ccc(OC(F)(F)c4ccccc4)cc3)c2cc1OC ?
OUT: 91

IN: Queued: Cc1ccc(O)cc1Nc1ccnc2cc(-c3cccc(CNCCS(C)(=O)=O)c3)ccc12
OUT: 99

IN: Quick one: CC(C)(CNC(=O)[C@@H]1CCCCN1)c1nc(-c2ccc(Cl)c(O)c2)c(-c2ccncc2)[nH]1
OUT: 97

IN: Next record, please: O=C(C=Cc1ccc(Cl)c(Cl)c1)NCCCCCN1CCC(CCCNS(=O)(=O)c2ccc(F)cc2)CC1
OUT: 93

IN: # repeat for Nc1nc(N)c2c(n1)CCc1cc(Br)ccc1-2
OUT: 87

IN: Next: CCN(CC)CCCC(C)Nc1ccnc2cc(C#N)ccc12 (stereo unspecified)
OUT: 100

IN: Here is the next compound: COc1ccc(OC)c(CC2c3ccc(Br)c(O)c3CCN2C)c1 (stereo unspecified)
OUT: 98

IN: Moving on to O=C(/C=C/c1ccc(Cl)c(Cl)c1)NCCCCCN1CCC(NC(=O)NC2CCCCC2)CC1
OUT: 96
